These entries and their values trace back to paper PMC9668969.

target: ELIC3 (V261Y/G319F/I320F) (Dickeya chrysanthemi, UniProt P0C7B7, G318F/I319F/V260Y); assay: Giant liposome excised patch-clamp recordings (2:1:1 POPC:POPE:POPG); conditions: 2:1:1 giant liposomes, 0.5 mM BaCl2, Hill n set to 2; read-out: EC50 of peak current dose response
Sequence (P0C7B7 whole entry V260Y/G318F/I319F): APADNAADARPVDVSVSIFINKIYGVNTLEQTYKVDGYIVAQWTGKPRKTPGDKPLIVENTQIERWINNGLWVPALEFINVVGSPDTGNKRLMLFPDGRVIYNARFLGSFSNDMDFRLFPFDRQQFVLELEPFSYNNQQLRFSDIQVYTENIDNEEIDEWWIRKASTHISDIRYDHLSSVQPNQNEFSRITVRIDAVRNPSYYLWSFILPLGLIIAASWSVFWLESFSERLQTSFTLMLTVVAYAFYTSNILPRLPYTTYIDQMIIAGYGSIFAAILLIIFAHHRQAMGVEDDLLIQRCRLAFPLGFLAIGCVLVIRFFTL
Measured Attribute: pEC50
Reminder that pEC50 means the negative base-10 logarithm of the concentration expressed in mol/L.

What measured pEC50 goes with "NCCS" ? 2.92

====

test system: WT ELIC; test: Tryptophan stopped-flow fluorescence measurements (rapid mixing with agonist, DDM); format: biochemical, Erwinia chrysanthemi; conditions: ELIC in DDM, Hill fit; read-out: EC50 of normalized change in TRP fluorescence
Measured Attribute: pEC50
Please report pEC50 as the negative decimal logarithm of the molar concentration, giving only the number.

Param item = CCCN [propylamine] ; retrieve measured pEC50. 2.37
